assayedTarget: T1, Recombinant Rhesus OX40L (Leader Sequence, FLAG and Isoleucine zipper included) (Rhesus (Macaca mulatta))
T1 construct: also called RhsOX40L; Rhesus monkey OX40L
T1 sequence (chain, as listed by the source limits assumed): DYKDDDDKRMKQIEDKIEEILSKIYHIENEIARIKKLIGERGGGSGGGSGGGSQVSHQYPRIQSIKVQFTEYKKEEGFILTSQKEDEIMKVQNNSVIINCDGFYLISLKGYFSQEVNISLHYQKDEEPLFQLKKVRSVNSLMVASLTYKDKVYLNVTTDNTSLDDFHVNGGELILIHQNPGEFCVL
measurementDescription: SPR (ProteOn XPR36), antibody captured, rhesus OX40L at 256 nM, 25 C; CNROR = cannot resolve off-rate
parameterMeasured: binding result

>  <binder>
10A07 (hybridoma) (antibody, V domains shown, Purified from hybridoma supernatant as a murine/human chimeric antibody (human variable domains, mouse constant regions); also called 10A7) VH: EVQLVESGGVLVQPGGSLRLSCAASGFTFSSYIMTWVRQAPGKGLEWVSGISGSGGGTYYADSMKGRFTISRDNSKNTLYLQMNSLRVEDTAVYYCAKDRLGPITLVRGGYYYGMDVWGQGTTVTVSS VL: DIQMTQSPSSLSASVGDRVTITCRASQSISDYLNWYQQKPGKAPKFLIYAASSLQSGVPSRFSGSGSGTDFTLTVSSLQPEDFATYYCQQSYSTPRTFGQGTRVEIK

>  <parameterMeasured>
binding result

>  <endpointResult>
binds

$$$$
